Organism: Oryctolagus cuniculus
Experiment: Vasorelaxant effects in circumferential strips of potassium-depolarized rabbit aorta. (IC50 in rabbit aorta strips contracted with KCl(95% confidence interval))
Type: functional, organism-based
pIC50: −log10 of the molar value.
quantity kind: pIC50

COc1ccc([C@H]2Cc3c(cccc3C(F)(F)F)N(CCN(C)C)C(=O)[C@H]2OC(C)=O)cc1.Cl (stereo in doubt; 4p) :: 5.41

====

Species: Oryctolagus cuniculus
Experiment: Vasorelaxant effects in circumferential strips of potassium-depolarized rabbit aorta. (IC50 in rabbit aorta strips contracted with KCl(95% confidence interval))
Format: functional, organism-based
Details: Oryctolagus cuniculus, Aorta
quantity kind: IC50

COc1ccc([C@@H]2Cc3c(cccc3C(F)(F)F)N(C[C@H]3CCCN3C)C(=O)[C@@H]2OC(C)=O)cc1 :: 1100 nM
COc1ccc([C@@H]2Cc3c(cccc3C(F)(F)F)N(C[C@H]3CCCN3)C(=O)[C@@H]2O)cc1 :: 890 nM
CNCCN1C(=O)[C@H](OC(C)=O)[C@H](c2ccc(OC)cc2)Cc2c1cccc2C(F)(F)F :: 180 nM
COc1ccc([C@@H]2Cc3c(OC)cccc3N(CCN(C)C)C(=O)[C@@H]2OC(C)=O)cc1.Cl :: 2400 nM
COc1ccc([C@@H]2Sc3ccccc3N(CCN(C)C)C(=O)[C@@H]2OC(C)=O)cc1 (relative stereo) :: 210 nM
COc1ccc([C@H]2Cc3c(cccc3C(F)(F)F)N(CCN(C)C)C(=O)[C@H]2OC(C)=O)cc1.Cl (stereo in doubt; 4n) :: 4900 nM
COc1ccc([C@@H]2Cc3cc(Cl)ccc3N(CCN(C)C)C(=O)[C@@H]2OC(C)=O)cc1 :: 1500 nM
COc1ccc([C@@H]2Cc3c(cccc3C(F)(F)F)N(CCN(C)C)C(=O)[C@@H]2O)cc1 :: 300 nM
COc1ccc([C@@H]2Cc3c(cccc3C(F)(F)F)N(C[C@H]3CCCN3)C(=O)[C@@H]2OC(C)=O)cc1 :: 630 nM
COc1ccc([C@H]2Cc3cc(C(F)(F)F)ccc3N(CCN(C)C)C(=O)[C@H]2OC(C)=O)cc1.Cl (stereo in doubt) :: > 10000 nM

====

Parameter pIC50: see the listing below.
Organism: Oryctolagus cuniculus
Assay: In Vitro evaluation for the vasorelaxant effects in circumferential strips of potassium-depolarized rabbit aorta. (IC50 in rabbit aorta strips contracted with KCl
Type: functional
pIC50: −log10 of the molar value.
quantity kind: pIC50

COc1ccc([C@@H]2Sc3ccccc3N(CCN(C)C)C(=O)[C@@H]2OC(C)=O)cc1 [DILTIAZEM] :: 5.74
COc1ccc([C@@H]2Cc3c(cccc3C(F)(F)F)N(C[C@@H]3CCCN3)C(=O)[C@@H]2O)cc1 :: 7.02

====

The reader will find reported Decrease values listed item by item below.
Tested on: Rattus norvegicus
Assay: In vivo evaluation for the percentage decrease in blood pressure at 135 umol/kg administered through oral route in spontaneously hypertensive rats and observed for 12-18 h.
Assay type: functional
quantity kind: Decrease

COc1ccc([C@@H]2Cc3cc(C(F)(F)F)ccc3N(CCN(C)C)C(=O)[C@@H]2OC(C)=O)cc1.Cl :: 18%
COc1ccc([C@@H]2Cc3c(cccc3C(F)(F)F)N(C[C@H]3CCCN3C)C(=O)[C@@H]2OC(C)=O)cc1 :: 18%
COc1ccc([C@H]2Cc3c(cccc3C(F)(F)F)N(CCN(C)C)C(=O)[C@H]2OC(C)=O)cc1.Cl (stereo in doubt; 4n) :: 9%
COc1ccc([C@@H]2Cc3c(cccc3C(F)(F)F)N(CCN(C)C)C(=O)[C@@H]2OC(C)=O)cc1.Cl (stereo in doubt) :: 30%
COc1ccc([C@@H]2Cc3c(cccc3C(F)(F)F)N(C[C@H]3CCCN3)C(=O)[C@@H]2OC(C)=O)cc1 :: 26%
COc1ccc([C@@H]2Cc3c(cccc3C(F)(F)F)N(CCN(C)C)C(=O)[C@@H]2OC(C)=O)cc1.Cl :: 24%
CNCCN1C(=O)[C@H](OC(C)=O)[C@H](c2ccc(OC)cc2)Cc2c1cccc2C(F)(F)F :: 32%
